molecular target: purified Z-AAT protein from human plasma (Homo sapiens (Human), UniProt P01009, E366K); test: Biochemical Assay (Z-AAT Elastase Activity Assay); conditions: purified Z-AAT pre-incubated with compound 1 hour, then human neutrophil elastase and fluorescent substrate
Sequence (P01009 25-418 E366K limits assumed): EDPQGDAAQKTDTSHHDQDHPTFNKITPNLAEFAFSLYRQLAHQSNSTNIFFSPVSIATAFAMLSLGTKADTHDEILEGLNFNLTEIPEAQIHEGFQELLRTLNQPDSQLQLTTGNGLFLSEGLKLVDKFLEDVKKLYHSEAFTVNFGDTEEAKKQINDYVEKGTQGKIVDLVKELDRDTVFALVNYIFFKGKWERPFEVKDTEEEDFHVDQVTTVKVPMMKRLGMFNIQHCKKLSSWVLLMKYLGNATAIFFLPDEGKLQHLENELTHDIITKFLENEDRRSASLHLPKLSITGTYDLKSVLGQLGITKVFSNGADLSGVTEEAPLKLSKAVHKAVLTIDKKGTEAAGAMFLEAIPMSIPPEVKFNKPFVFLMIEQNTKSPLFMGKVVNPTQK
valueKind: IC50

// worked examples, IC50 included
{"columns": ["molecule", "testedSystem", "IC50"],
 "data": [
  ["CO[C@]1(C(=O)O)C[C@H](c2c(C3CCOCC3)n(-c3ccc(F)c(C)c3)c3ccc(O)cc32)C1 [Compound 15]", "purified Z-AAT protein from human plasma (Homo sapiens (Human), UniProt P01009, E366K)", "> 30 µM"],
  ["CO[C@]1(C(=O)O)C[C@@H](c2c(C3CCOCC3)n(-c3ccc(F)c(C)c3)c3ccc(O)cc32)C1 [Compound 16]", "purified Z-AAT protein from human plasma (Homo sapiens (Human), UniProt P01009, E366K)", "> 30 µM"],
  ["Cc1cc(-n2c(C(C)C)c([C@H]3C[C@@](C)(C(=O)O)C3)c3c(F)c(O)c(F)cc32)ccc1F [Compound 23]", "purified Z-AAT protein from human plasma (Homo sapiens (Human), UniProt P01009, E366K)", "> 30 µM"],
  ["Cc1cc(-n2c(C3CCOCC3)c(CCC(F)(F)C(=O)O)c3cc(O)ccc32)ccc1F [Compound 10]", "purified Z-AAT protein from human plasma (Homo sapiens (Human), UniProt P01009, E366K)", "> 30 µM"]
]}

Record Cc1cc(-n2c(C3CCOCC3)c([C@H]3C[C@@H](C(=O)O)C3)c3cc(O)ccc32)ccn1 [Compound 143] . Reported IC50: > 30 µM

IC50 in this record for CC(C)c1c(C2CC3(CC(C(=O)O)C3)C2)c2cc(O)ccc2n1-c1ccc(F)cc1 (stereo not shown) [Compound 80] : < 2 µM

Entry under test: CC(C)(CCc1c(C2CCOCC2)n(-c2ccc(F)cc2)c2ccc(O)cc12)C(=O)O [Compound 30] . Its IC50 was > 30 µM

IC50 recorded for this molecule, Cc1cc(-n2c(C3CCOCC3)c(CC3CC(C(=O)O)C3)c3cc(O)ccc32)ccc1F (stereo not shown) [Compound 25] , is > 30 µM

Summary for this molecule, Cc1cc(-n2c(C(C)C)c(-c3cc(C(=O)O)[nH]n3)c3cc(O)ccc32)ccc1F [Compound 179] : IC50 is > 30 µM

Measured IC50 of O=C(O)[C@H]1C[C@H](c2c(C3CCOCC3)n(-c3ccc(F)cc3)c3ccc(O)cc32)C1 [Compound 45] : > 30 µM

Recorded IC50 (molecule O=C(O)[C@H]1CC[C@@H](c2c(C3CCOCC3)n(-c3ccc(F)c(Cl)c3)c3ccc(O)cc32)CC1 [Compound 24] ): > 30 µM

Entry Cc1cc(-n2c(C)c(C(C)C(=O)O)c3cc(O)ccc32)ccc1F (stereo not shown) [Compound 159] ; IC50 = > 30 µM

Reported IC50 for Cc1cc(-n2c(C)c(C#N)c3cc(O)cc(N)c32)ccc1F [Compound 212] was > 30 µM

###

Reported IC50 values for the following molecules.
molecular target: purified Z-AAT protein from human plasma (Homo sapiens (Human), UniProt P01009, E366K); test: Biochemical Assay (Z-AAT Elastase Activity Assay); conditions: purified Z-AAT pre-incubated with compound 1 hour, then human neutrophil elastase and fluorescent substrate

{"columns": ["molecule", "IC50"],
 "data": [
  ["CC(=O)NS(=O)(=O)N1CC(c2c(C(C)C)n(-c3ccc(F)c(C)c3)c3ccc(O)cc23)C1 [Compound 214]", "> 30 µM"],
  ["CC(C)c1c(CC2(C(=O)O)CC2)c2cc(O)ccc2n1-c1ccc(F)cc1 [Compound 71]", "> 5 µM"],
  ["Cc1cc(-n2c(C(C)C)c(C3CCOC(C(=O)O)C3)c3cc(O)ccc32)ccc1F (stereo not drawn) [Compound 65]", "> 30 µM"],
  ["Cc1cc(-n2c(C(C)C)c([C@@H]3C[C@H]3C(=O)O)c3cc(O)ccc32)ccc1F [Compound 135]", "> 30 µM"],
  ["Cc1cc(-n2c(C3CCOCC3)c([C@H]3CC4(C[C@H](C(=O)O)C4)C3)c3cc(O)ccc32)ccc1F (stereo partly drawn) [Compound 12]", "> 5 µM"]
]}

The measured IC50 associated with Cc1cc(-n2c(C3CCOCC3)c(C3CCCC(C(=O)O)C3)c3cc(O)ccc32)ccc1F (stereo not drawn) [Compound 3] reads > 30 µM

The reported value for Cc1cc(-n2c(C3CCOCC3)c([C@H]3C[C@H](c4nn[nH]n4)C3)c3cc(O)ccc32)ccc1F [Compound 218] in terms of IC50 is > 30 µM

###

target: purified Z-AAT protein from human plasma (Homo sapiens (Human), UniProt P01009, E366K); assay: Biochemical Assay (Z-AAT Elastase Activity Assay); conditions: purified Z-AAT pre-incubated with compound 1 hour, then human neutrophil elastase and fluorescent substrate
valueKind: IC50

For orientation, consider the following solved cases.
{"columns": ["compound", "testResult"],
 "data": [
  ["O=C(O)C1CC2(C1)CC(c1c(C3CCOCC3)n(-c3ccccc3)c3ccc(O)cc13)C2 (stereo not shown)", "> 30 µM"],
  ["O=C(O)[C@H]1C[C@@H](c2c(C3CCOCC3)n(-c3cc(F)cc(F)c3)c3ccc(O)cc32)C1", "> 30 µM"],
  ["Cc1cc(-n2c(C3CCS(=O)(=O)CC3)c(C[C@H]3CC[C@H](C(=O)O)CC3)c3cc(O)ccc32)ccc1F", "> 30 µM"],
  ["Cc1cc(-n2c(C(C)C)c(C3CC(C(=O)O)C3)c3cc(O)ccc32)ccc1F (stereo not shown)", "> 30 µM"],
  ["Cc1cc(-n2c(C)c(CC(=O)O)c3cc(O)ccc32)ccn1", "> 30 µM"],
  ["CCC(OC)c1c(C#N)c2cc(O)ccc2n1-c1ccc(F)cc1 (racemic)", "> 5 µM"],
  ["O=C(O)[C@H]1C[C@H](Cc2c(C3CCOCC3)n(-c3ccc(F)c(Cl)c3)c3ccc(O)cc23)C1", "> 30 µM"],
  ["O=C(O)[C@H]1CC2(C1)C[C@H](c1c(C3CCOCC3)n(-c3ccc(F)cc3)c3ccc(O)cc31)C2 (stereo partly shown) [Compound 50]", "> 30 µM"],
  ["Cc1cc(-n2c(C(F)(F)F)c([C@H]3C[C@](C)(C(=O)O)C3)c3cc(O)ccc32)ccc1F", "> 5 µM"],
  ["Cc1cc(-n2c(C(C)C)c(CCCC(=O)O)c3cc(O)ccc32)ccc1F", "> 30 µM"]
]}

# next compound below
IC50 in this record for Cc1cc(-n2c(C(C)C)c(CCC(C)(C)C(=O)O)c3cc(O)ccc32)ccc1F : > 30 µM

###

target: NL20 human bronchial epithelial cells expressing human Z-AAT (Homo sapiens (Human), UniProt P01009, E366K); assay: AAT Function Assay (MSD Assay NL20-SI Cell Line); settings: functionally active AAT (AAT-hNE complex, MSD) in supernatant of NL20 cells expressing human Z-AAT; read-out: NL20 Functional EC50
Sequence (P01009 25-418 E366K limits assumed): as above
pEC50: −log10 of the molar value.
valueKind: pEC50

# annotated cases, reported pEC50 shown
{"columns": ["molecule", "valueKind", "testResult"],
 "data": [
  ["O=C(O)[C@H]1C[C@H](Cc2c(C3CCOCC3)n(-c3ccc(F)cc3)c3ccc(O)cc23)C1", "pEC50", "< 5.70"],
  ["CCC(O)c1c(C#N)c2cc(O)ccc2n1-c1ccc(F)cc1 (racemic)", "pEC50", "< 5.70"],
  ["Cc1cc(-n2c(C3CCOCC3)c(C[C@H]3CC[C@H](C(=O)O)CC3)c3cc(O)ccc32)ccc1F", "pEC50", "< 5.70"],
  ["CC(C)c1c([C@H]2C[C@](C)(C(=O)O)C2)c2cc(O)ccc2n1-c1ccc(F)c(Cl)c1", "pEC50", "5.70 to 6.30"],
  ["Cc1cc(-n2c(C3CCOCC3)c([C@H]3C[C@H](C(=O)O)C3)c3cc(O)ccc32)ccc1F", "pEC50", "< 5.70"],
  ["N#Cc1c(C2CCC2)n(-c2ccc(F)cc2)c2ccc(O)cc12", "pEC50", "5.70 to 6.30"],
  ["Cc1cc(-n2c(C(C)C)c([C@H]3C[C@](C)(C(=O)O)C3)c3c(F)c(O)c(F)cc32)ccc1F", "pEC50", "5.70 to 6.30"],
  ["Cc1cc(-n2c(C(C)C)c([C@H]3C[C@@H](C(=O)O)C3)c3cc(O)ccc32)ccn1", "pEC50", "< 5.70"]
]}

Given item O=C(O)[C@H]1CC2(C1)C[C@H](c1c(C3CCOCC3)n(-c3ccc(F)cc3)c3ccc(O)cc31)C2 (stereo partly shown) [Compound 51] , the value recorded as its pEC50 is 5.70 to 6.30

Lab note: measured pEC50 of Cc1cc(-n2c(C)c(C#N)c3cc(O)cc(N)c32)ccc1F was < 5.70
